- System: OVCAR-3 ovarian
- protocol.notes: NCI-60 one-dose screen, 48 h
- test.parameters: 10 µM
Compounds without any hit were thinned out: in the full panel of roughly 83,000, 20% have a hit. Activity calls are given as the source filed them. The calls were made as follows: active = growth percent below 10; inactive = the rest.
Respond with a class label; see active, inactive

{"molecule": "CNc1ncc(-c2ccc(C(F)(F)F)cc2)c(NC2CCCCCC2)n1", "system.tested": "OVCAR-3 ovarian", "discrete.label": "inactive"}
{"molecule": "CC(=O)c1cc(Br)ccc1O", "system.tested": "OVCAR-3 ovarian", "discrete.label": "inactive"}
{"molecule": "CCC1(C(C)C)NC(=O)NC1=O (configuration not stated)", "system.tested": "OVCAR-3 ovarian", "discrete.label": "inactive"}
{"molecule": "C=C(C(=O)c1ccccc1)C(NC(C)(C)C)c1ccccc1 (configuration not stated)", "system.tested": "OVCAR-3 ovarian", "discrete.label": "active"}
{"molecule": "CSc1nn(-c2ccccc2)c2ncnc(Oc3ccc(C)cc3)c12", "system.tested": "OVCAR-3 ovarian", "discrete.label": "inactive"}

Consider the additional molecule presented here.
input: Returns: the outcome recorded for Cc1cccc2c1O/C(=C\c1ccc([N+](=O)[O-])o1)C2=O in this assay.
output: active

====

- Tested on: UACC-62 melanoma
- protocol.notes: NCI-60 one-dose screen, 48 h
- test.parameters: 10 µM
This is part of a sample that, as a whole, favours compounds with a hit. Of some 83,000 tested, about 20% had one in any assay. Active and inactive are the calls of the source. The calls were made as follows: active = growth percent below 10; inactive = the rest.
Allowed answers: T for active, F for inactive

{"compound": "CCCCCCCCCCCCC1C/C=C\\CCCC(=O)O1 (centres undefined)", "discrete.label": "F"}
{"compound": "COc1ccc(-c2nc3sc(-c4ccccc4)c(-c4ccccc4)n3c2/C=C/C(=O)c2ccccn2)cc1", "discrete.label": "F"}
{"compound": "COc1cc(Cl)cc(-c2nn(-c3cccc(NC(=O)c4ccc(Cl)c(Cl)c4)c3)cc2-c2ccncc2)c1", "discrete.label": "F"}

input: Recorded test outcome, item CCCCCCCCCCCCCC[n+]1ccc(C(N)=O)cc1
output: T

====

- Tested on: NCI-H522 lung
- protocol.notes: NCI-60 one-dose screen, 48 h
- test.parameters: 10 µM
- Description: Growth inhibition of the NCI-H522 human Non-Small Cell Lung tumor cell line is measured as a screen for anti-cancer activity. Cells are grown in 96 well plates and exposed to the test compound for 48 hours. Compounds are tested at a single concentration, which is 10^-5 M for most compounds. The reported endpoint is percent growth (GI% or GIPRCNT), where numbers from 0 - 100% represent growth inhibition, and numbers from -100% - 0 represent cell death. […]
This is part of a sample that, as a whole, favours compounds with a hit. Of some 83,000 tested, about 20% had one in any assay. Calls of active or inactive are those of the source. Rule for the calls: active = growth percent below 10; inactive = the rest.
Select the matching outcome among true (active), false (inactive)

Completed entries (count: 2):
{"structure": "CC(=O)OCc1cc(-c2nc3ccccc3[nH]c2=O)nn1-c1ccc(Cl)cc1", "discrete.label": "true"}
{"structure": "O=C(N/N=C/c1ccccc1O)C(O)(c1ccccc1)c1ccccc1", "discrete.label": "false"}

Here is another molecule to look at.
input: Which outcome was entered for the molecule Nc1nc(N=Nc2ccc(O)cc2)cc(=O)[nH]1 in this test?
output: false

====

- Test system: KM12 colon
- protocol.notes: NCI-60 one-dose screen, 48 h (100 = growth as untreated, 0 = no growth, -100 = all killed)
- test.parameters: 10 µM
- Experimental: Growth inhibition of the KM12 human tumor cell line is measured as a screen for anti-cancer activity. Cells are grown in 96 well plates and exposed to the test compound for 48 hours. Compounds are tested at a single concentration, which is 10^-5 M for most compounds. The reported endpoint is percent growth (GI% or GIPRCNT), where numbers from 0 - 100% represent growth inhibition, and numbers from -100% - 0 represent cell death. For example, a value of 40 represents 60% growth inhibition. […]
This is part of a sample that, as a whole, favours compounds with a hit. Of some 83,000 tested, about 20% had one in any assay.
result.type: growth (%)
One number for each entry, in %.

As a guide, the following entries are already answered.
{"compound": "COc1ccc(-c2nn(-c3cccc(NC(=O)Nc4cc(C(F)(F)F)cc(C(F)(F)F)c4)c3)cc2-c2ccncc2)cc1Cl", "uom": "%", "growth": -2.5}
{"compound": "O=C(CCCCCCC(=O)Nc1cccnc1)NO", "uom": "%", "growth": 6.19}
{"compound": "O=C(Nc1cccc(-n2cc(-c3ccncc3)c(-c3ccc(O)c(Cl)c3)n2)c1)c1cccc(C(F)(F)F)c1", "uom": "%", "growth": 20.2}
{"compound": "COc1ccc2c(c1)C(=O)c1c-2c(OCCN2CCCCC2)nc2ccc(OC)cc12", "uom": "%", "growth": 29.2}
{"compound": "CN(C)c1ccc(-c2cc(-c3cccc(NS(C)(=O)=O)c3)nc(N)c2C#N)cc1", "uom": "%", "growth": -14.3}
{"compound": "S=c1[nH]ccn1-c1c(Cl)cccc1Cl", "uom": "%", "growth": 104}
{"compound": "COc1ccc2c(c1)N(CCO)C1=C(C(=O)OC1)C2c1cc(OC)c(OC)c(OC)c1 (centres undefined)", "uom": "%", "growth": -43}
{"compound": "Nc1ncn([C@@H]2O[C@H](CO)[C@@H](O)[C@H]2O)c(=O)n1", "uom": "%", "growth": 16.6}

input: Name the reported growth value associated with the compound Cc1nc2oc3ccccc3c(=O)c2cc1C(=O)NCc1ccccc1
output: 31.3

====

- Tested on: SNB-19 CNS
- protocol.notes: NCI-60 one-dose screen, 48 h
- test.parameters: 10 µM
About 83,000 compounds went through this panel and 20% of them were active in at least one assay; those are over-represented in the sample as a whole. Calls of active or inactive are those of the source. Rule for the calls: active = growth percent below 10; inactive = the rest.
Permitted responses: active, inactive

// below: answered compounds
{"compound": "COc1cc(C(=C2O[C@@H]([C@H]3COC(C)(C)O3)[C@H]3OC(C)(C)O[C@@H]23)c2cc(OC)c(OC)c(OC)c2)cc(OC)c1OC", "discrete.label": "inactive"}
{"compound": "CC(C)=CCc1ccc(O)c(=O)cc1C(C)C", "discrete.label": "inactive"}

input: Can you look up the reported call for O=C(CNC(=O)OCc1ccccc1)NCC(=O)Oc1ccc([N+](=O)[O-])cc1 for me?
output: inactive

input: Now consider Cc1ccc(S(=O)(=O)Oc2ccc3c4c(c(=O)oc3c2)CCCCC4)cc1 .
output: inactive

input: Please give the result for Clc1ccc(Sc2nc(NC3CC3)nc(Sc3ccc(Cl)cc3)n2)cc1 too.
output: inactive

input: For COc1cccc(C2C3=C(COC3=O)N(CCO)c3cc(OC)ccc32)c1 (configuration not stated) then?
output: inactive

input: Similarly, N#CCCN1C/C(=C/c2ccc(Br)cc2)C(=O)/C(=C/c2ccc(Br)cc2)C1 ?
output: active

====

- System: TK-10 renal
- protocol.notes: NCI-60 one-dose screen, 48 h (100 = growth as untreated, 0 = no growth, -100 = all killed)
- test.parameters: 10 µM
This is part of a sample that, as a whole, favours compounds with a hit. Of some 83,000 tested, about 20% had one in any assay.
Record form. Attribute: growth. Fill in for each entry.
One number for each entry, in %.

{"compound": "Cn1c(C(N)=O)cc2c1-c1nc(Nc3ccccc3)ncc1CCC2", "growth [%]": 23.7}
{"compound": "CC/C(=N\\N=C(/CC)c1ccc(Br)cc1)c1ccc(Br)cc1", "growth [%]": 111}
{"compound": "COc1ccc(-c2nn(-c3cccc(NC(=O)c4cc(C(F)(F)F)cc(C(F)(F)F)c4)c3)cc2-c2ccncc2)cc1Cl", "growth [%]": 85.5}
{"compound": "COc1ccc2c(c1)N(CCO)C1=C(C(=O)OC1)C2c1ccccc1 (stereo unspecified)", "growth [%]": 44.7}
{"compound": "CC(C)(C#N)Nc1ccccc1", "growth [%]": 115}

Note: attention shifts to another entry.
input: Record request: growth value, item CCOCCOCCOCCOCCOCCOCCOCCOCCOCCO (tested in a mixture with another compound)
output: 0.0792

====

Can you tell me growth for the items I'm about to list?
- Test system: BT-549 breast
- protocol.notes: NCI-60 one-dose screen, 48 h (100 = growth as untreated, 0 = no growth, -100 = all killed)
- test.parameters: 10 µM
This is part of a sample that, as a whole, favours compounds with a hit. Of some 83,000 tested, about 20% had one in any assay. Activity calls are given as the source filed them. How the source made its calls: active means growth percent below 10; inactive means the rest.

Solved entries (count: 5):
{"compound": "CCCCOc1ccc(NC(=O)Nc2nnc(C)s2)cc1", "system.tested": "BT-549 breast", "growth": "110% (inactive)"}
{"compound": "COc1ccc(S(=O)(=O)NCCCNc2nccc(-c3c(-c4ccc(F)cc4)nc4sccn34)n2)cc1", "system.tested": "BT-549 breast", "growth": "70.6% (inactive)"}
{"compound": "COc1ccc(/C=C2/CN(C(=O)c3ccccc3F)C/C(=C\\c3ccc(OC)cc3)C2=O)cc1", "system.tested": "BT-549 breast", "growth": "37% (inactive)"}
{"compound": "O=S(=O)(Nc1ccccn1)c1ccc(N=Nc2ccc(O)c3ncccc23)cc1", "system.tested": "BT-549 breast", "growth": "1.2% (active)"}
{"compound": "COc1cc(-c2cc(C(=O)N3CCN(C(=O)c4ccccc4NCc4ccco4)CC3)nc3cc(-c4ccccc4)nn23)cc(OC)c1OC", "system.tested": "BT-549 breast", "growth": "35.6% (inactive)"}

Give measured growth for every item shown.
1. Cc1occc1-c1nnc(SCC(=O)c2ccc(NC(=O)CC(C)C)cc2)o1
2. COc1ccc(-c2nc(-c3nc4cc(Cl)c(Cl)cc4[nH]3)c3ccccn23)cc1
3. COc1ccc2c(c1)sc1nc(-c3ccccc3)c(-c3ccc(O)c(OC)c3)n12

output:
108% (inactive)
71.9% (inactive)
68.2% (inactive)
